Source: the supplement of paper PMC12855868

B1: library; numbered along this chain (parent)
chain: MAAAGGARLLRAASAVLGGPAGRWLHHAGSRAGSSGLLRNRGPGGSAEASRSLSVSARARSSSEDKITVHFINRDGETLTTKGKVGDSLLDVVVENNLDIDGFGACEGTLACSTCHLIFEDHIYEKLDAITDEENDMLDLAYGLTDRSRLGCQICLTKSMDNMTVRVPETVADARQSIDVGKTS

Variants of: B1
assay-summary: scaled log2 fold change in cell abundance, elesclomol vs control (0 = silent mean, 1 = nonsense mean) (scaled log2 ratio); higher = higher viability under elesclomol (loss of FDX1 cuproptosis function);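 further: variant abundance is its share of total variant reads in each endpoint sample, from next-generation sequencing of the integrated ORF PCR-amplified out of genomic DNA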
run-parameters: with ABC1 FDX1 KO; elesclomol 5 nM; glucose 10 mM; 14 days
# binarize scaled log2 fold change: threshold 0.08 inclusive, high side TRUE, low side FALSE

Check out these entries, answers already filled in.
INSERT INTO results (mutation_name, class_label) VALUES
  ('G5P', 'FALSE'),
  ('E48Y', 'TRUE'),
  ('K66C', 'FALSE'),
  ('G44N', 'TRUE'),
  ('G19C', 'FALSE');

Ask | In plain terms: is recorded scaled log2 fold change at least 0.08 for S62Q ?
Reply | TRUE

Ask | Does G108N have a reported scaled log2 fold change of at least 0.08?
Reply | TRUE

Ask | Decide: is the reported value of scaled log2 fold change for L53M equal to or greater than 0.08?
Reply | TRUE
